Target: FAP (Homo sapiens, UniProt Q12884)
Construct: the extracellular domain of FAP was cloned with a His-6 tag; made in house
Sequence (Q12884 26-760 limits assumed): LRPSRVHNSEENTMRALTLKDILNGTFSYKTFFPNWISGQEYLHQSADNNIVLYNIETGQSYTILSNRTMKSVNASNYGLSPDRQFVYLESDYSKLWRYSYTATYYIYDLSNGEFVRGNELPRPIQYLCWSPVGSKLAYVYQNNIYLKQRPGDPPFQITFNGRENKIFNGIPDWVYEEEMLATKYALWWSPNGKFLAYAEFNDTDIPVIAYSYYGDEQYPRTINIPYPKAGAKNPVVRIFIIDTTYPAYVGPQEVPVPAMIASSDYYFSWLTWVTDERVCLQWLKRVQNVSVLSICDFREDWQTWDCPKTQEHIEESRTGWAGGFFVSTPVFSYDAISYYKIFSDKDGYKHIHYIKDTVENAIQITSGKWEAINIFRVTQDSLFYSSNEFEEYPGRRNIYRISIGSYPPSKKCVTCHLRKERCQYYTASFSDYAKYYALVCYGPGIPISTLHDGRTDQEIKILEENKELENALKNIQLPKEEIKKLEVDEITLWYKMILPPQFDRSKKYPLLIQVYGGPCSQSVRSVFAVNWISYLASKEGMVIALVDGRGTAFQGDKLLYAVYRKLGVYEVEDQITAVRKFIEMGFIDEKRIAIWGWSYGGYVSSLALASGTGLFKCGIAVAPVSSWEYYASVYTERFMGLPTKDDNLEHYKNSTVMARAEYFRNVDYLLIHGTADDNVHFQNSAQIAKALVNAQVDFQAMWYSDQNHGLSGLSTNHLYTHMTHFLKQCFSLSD
Test: LC-MS/MS cleavage map of FAP digest of 100 kDa recombinant human gelatin
Type: biochemical
Settings: 100 kDa gelatin digest
Method: Human collagen I (Becton Dickinson, Franklin Lakes, N.J.) and recombinant human gelatins of 100 KDa and 8.5 KDa (Fibrogen, San Francisco, Calif.) were dissolved in reaction buffer to a final concentration of 100-300 μg/ml. 0.5-1 μg of FAP was added per 100 μgs of protein substrate. […] To identify the most preferentially cleaved sites, we relatively quantified the abundance of each of the identified peptides by integrating the ion current generated by each peptide throughout the chromatogram. […]
endpoint_label: Occurences

                                  substance                      assayed_target  endpoint_label  numeric_value
0  A.AGRVGPPGP.S: FAP cleavage fragment, 100 kDa recombinant human gelatin  FAP (Homo sapiens, UniProt Q12884)      Occurences              2

a = P.AGPPGEAGKPGEQGVPGDLGAPGP.S: FAP cleavage fragment, 100 kDa recombinant human gelatin
b = P.AGPKGEPGSPGENGAPG.Q: FAP cleavage fragment, 100 kDa recombinant human gelatin
Query: Hello, I am sorting some records. Could you say if a or b has the smaller Occurences value? Pick one; state its label.
Reply: b

====

Target: FAP (Homo sapiens, UniProt Q12884)
Construct: the extracellular domain of FAP was cloned with a His-6 tag; made in house
Sequence (Q12884 26-760 limits assumed): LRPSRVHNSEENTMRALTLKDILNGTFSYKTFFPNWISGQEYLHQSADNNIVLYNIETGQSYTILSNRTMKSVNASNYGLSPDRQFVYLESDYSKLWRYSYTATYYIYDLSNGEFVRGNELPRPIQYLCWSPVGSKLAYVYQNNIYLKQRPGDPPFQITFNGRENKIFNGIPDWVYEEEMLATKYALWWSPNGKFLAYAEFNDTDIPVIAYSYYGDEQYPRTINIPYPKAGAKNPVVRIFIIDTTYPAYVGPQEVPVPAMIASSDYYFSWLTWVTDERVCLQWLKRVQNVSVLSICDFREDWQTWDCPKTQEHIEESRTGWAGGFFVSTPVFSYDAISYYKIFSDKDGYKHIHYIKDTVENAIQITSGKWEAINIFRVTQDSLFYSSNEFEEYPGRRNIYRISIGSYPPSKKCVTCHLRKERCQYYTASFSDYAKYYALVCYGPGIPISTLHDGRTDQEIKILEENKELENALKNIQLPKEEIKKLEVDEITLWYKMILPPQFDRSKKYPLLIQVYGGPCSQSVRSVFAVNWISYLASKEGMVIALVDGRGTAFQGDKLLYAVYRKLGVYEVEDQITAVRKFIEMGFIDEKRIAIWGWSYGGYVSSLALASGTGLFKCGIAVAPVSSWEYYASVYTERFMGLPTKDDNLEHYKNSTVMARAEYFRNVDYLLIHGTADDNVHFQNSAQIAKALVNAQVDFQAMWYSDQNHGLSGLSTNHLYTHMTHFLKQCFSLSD
Assay: LC-MS/MS cleavage map of FAP digest of 100 kDa recombinant human gelatin
Assay type: biochemical
Settings: 100 kDa gelatin digest
endpoint_label: Occurences

Below are worked cases with known answers.
substance	endpoint_label	numeric_value
P.IGPPGPAGAPGDKGESGP.S: FAP cleavage fragment, 100 kDa recombinant human gelatin	Occurences	6
A.PGAPGPVGPAGKSGDRGETGP.A: FAP cleavage fragment, 100 kDa recombinant human gelatin	Occurences	2
P.PGLAGPPGESGREGAPGAEGSPGRD.G: FAP cleavage fragment, 100 kDa recombinant human gelatin	Occurences	2

1 = A.PGPVGPAGKSGDRGETGP.A: FAP cleavage fragment, 100 kDa recombinant human gelatin
2 = P.AGPPGAPGAPGAPGP.V: FAP cleavage fragment, 100 kDa recombinant human gelatin
3 = P.TGARGAPGDRGEPGPPGP.A: FAP cleavage fragment, 100 kDa recombinant human gelatin
Query: Please list the entries, largest Occurences first. Would you mind listing the labels in the order requested?
Reply: 3, 2, 1

====

Target: FAP (Homo sapiens, UniProt Q12884)
Construct: the extracellular domain of FAP was cloned with a His-6 tag; made in house
Sequence (Q12884 26-760 limits assumed): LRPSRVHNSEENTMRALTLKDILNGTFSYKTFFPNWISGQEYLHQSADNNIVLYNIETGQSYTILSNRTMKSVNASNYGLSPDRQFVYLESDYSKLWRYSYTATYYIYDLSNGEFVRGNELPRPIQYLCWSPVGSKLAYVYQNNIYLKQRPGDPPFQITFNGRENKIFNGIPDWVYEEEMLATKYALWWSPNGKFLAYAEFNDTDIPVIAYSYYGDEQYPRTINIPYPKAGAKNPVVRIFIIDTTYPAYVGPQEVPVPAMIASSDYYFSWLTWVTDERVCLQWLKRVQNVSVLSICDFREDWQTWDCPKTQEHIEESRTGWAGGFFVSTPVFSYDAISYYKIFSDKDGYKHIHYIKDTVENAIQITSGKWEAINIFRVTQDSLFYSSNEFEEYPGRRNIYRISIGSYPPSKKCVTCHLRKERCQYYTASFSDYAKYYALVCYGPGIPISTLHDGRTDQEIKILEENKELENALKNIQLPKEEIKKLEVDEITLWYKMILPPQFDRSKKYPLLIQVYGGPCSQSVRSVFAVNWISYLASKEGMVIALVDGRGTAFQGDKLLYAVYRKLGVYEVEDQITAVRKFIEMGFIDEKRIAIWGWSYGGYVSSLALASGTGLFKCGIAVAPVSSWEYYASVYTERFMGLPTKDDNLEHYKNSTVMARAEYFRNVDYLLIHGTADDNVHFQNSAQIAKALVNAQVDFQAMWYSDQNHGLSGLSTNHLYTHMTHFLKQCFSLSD
Experiment: LC-MS/MS cleavage map of FAP digest of 100 kDa recombinant human gelatin
Format: biochemical
Conditions: 100 kDa gelatin digest
endpoint_label: Occurences

Below are worked cases with known answers.
>>> print(df.to_string())
                                  substance  numeric_value
0  P.QGVRGEPGPPGP.A: FAP cleavage fragment, 100 kDa recombinant human gelatin              3
1  P.SGEPGKQGPSGASGERGPPGP.M: FAP cleavage fragment, 100 kDa recombinant human gelatin              4
2  A.GPAGPPGP.I: FAP cleavage fragment, 100 kDa recombinant human gelatin              1
3  P.RGPPGSAGAPGKDGLNGLPGP.I: FAP cleavage fragment, 100 kDa recombinant human gelatin             14
4  G.PPGPAGAPGDK.G: FAP cleavage fragment, 100 kDa recombinant human gelatin              2

P = D.GQPGAKGEPGDAGAKGDAGPPGP.A: FAP cleavage fragment, 100 kDa recombinant human gelatin
Q = P.VGVQGPPGP.A: FAP cleavage fragment, 100 kDa recombinant human gelatin
Query: Which is greater in Occurences, the first item P or the second item Q ? Pick one; state its label.
Reply: Q
(Q: 3, P: 2)

====

Target: FAP (Homo sapiens, UniProt Q12884)
Construct: the extracellular domain of FAP was cloned with a His-6 tag; made in house
Sequence (Q12884 26-760 limits assumed): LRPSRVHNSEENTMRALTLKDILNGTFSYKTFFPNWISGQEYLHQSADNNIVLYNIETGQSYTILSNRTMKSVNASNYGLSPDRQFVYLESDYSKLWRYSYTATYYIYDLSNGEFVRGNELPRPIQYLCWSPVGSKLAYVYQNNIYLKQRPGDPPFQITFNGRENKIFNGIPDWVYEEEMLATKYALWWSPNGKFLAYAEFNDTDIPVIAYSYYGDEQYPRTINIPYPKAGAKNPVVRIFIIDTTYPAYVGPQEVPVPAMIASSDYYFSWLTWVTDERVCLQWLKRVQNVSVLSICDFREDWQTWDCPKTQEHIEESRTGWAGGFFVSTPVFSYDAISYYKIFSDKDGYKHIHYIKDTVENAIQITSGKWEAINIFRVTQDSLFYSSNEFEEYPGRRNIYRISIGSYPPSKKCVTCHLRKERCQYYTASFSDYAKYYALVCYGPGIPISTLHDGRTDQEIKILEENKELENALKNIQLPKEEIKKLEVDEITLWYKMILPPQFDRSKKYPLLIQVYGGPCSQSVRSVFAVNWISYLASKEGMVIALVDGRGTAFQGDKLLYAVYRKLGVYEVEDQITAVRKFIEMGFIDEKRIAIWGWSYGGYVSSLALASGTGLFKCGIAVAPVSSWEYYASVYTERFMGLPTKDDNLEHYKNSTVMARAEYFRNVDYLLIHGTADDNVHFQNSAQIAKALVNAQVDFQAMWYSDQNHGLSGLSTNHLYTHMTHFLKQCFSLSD
Assay: LC-MS/MS cleavage map of FAP digest of 100 kDa recombinant human gelatin
Format: biochemical
Settings: 100 kDa gelatin digest; share of all occurrences
endpoint_label: Percentage

Below are worked cases with known answers.
                                  substance                      assayed_target  endpoint_label  numeric_value
0  A.PGPVGPAGKSGDRGETGP.A: FAP cleavage fragment, 100 kDa recombinant human gelatin  FAP (Homo sapiens, UniProt Q12884)      Percentage           0.48
1  P.KGAAGEPGKAGERGVPGPPGAVGPAGKDGEAGAQGPPGP.A: FAP cleavage fragment, 100 kDa recombinant human gelatin  FAP (Homo sapiens, UniProt Q12884)      Percentage           0.48
2  P.AGPPGFPGAVGAKGEAGP.Q: FAP cleavage fragment, 100 kDa recombinant human gelatin  FAP (Homo sapiens, UniProt Q12884)      Percentage           0.95
3  P.AGPKGEPGSPGENGAPG.Q: FAP cleavage fragment, 100 kDa recombinant human gelatin  FAP (Homo sapiens, UniProt Q12884)      Percentage           0.48
4  P.GGPPGPKGNSGEPGAPGSKGD.T: FAP cleavage fragment, 100 kDa recombinant human gelatin  FAP (Homo sapiens, UniProt Q12884)      Percentage           0.48

I = P.GPSGNAGPPGPP.G: FAP cleavage fragment, 100 kDa recombinant human gelatin
II = V.GPPGPPGPP.G: FAP cleavage fragment, 100 kDa recombinant human gelatin
III = G.PPGPAGAPGDKGESGP.S: FAP cleavage fragment, 100 kDa recombinant human gelatin
Query: Please list the entries, largest Percentage first. Would you mind listing the labels in the order requested?
Reply: III, II, I

A = P.TGARGAPGDRGEPGPPGP.A: FAP cleavage fragment, 100 kDa recombinant human gelatin
B = A.AGRVGPPGP.S: FAP cleavage fragment, 100 kDa recombinant human gelatin
C = P.SGEPGKQGPSGASGERGPPGP.M: FAP cleavage fragment, 100 kDa recombinant human gelatin
Query: Please list the entries, largest Percentage first. Would you mind listing the labels in the order requested?
Reply: A, C, B

1 = P.QGVRGEPGPPGP.A: FAP cleavage fragment, 100 kDa recombinant human gelatin
2 = P.AGEKGSPGADGPAGAPGTPGP.Q: FAP cleavage fragment, 100 kDa recombinant human gelatin
Query: Hello, I am sorting some records. Could you say if 1 or 2 has the smaller Percentage value? Pick one; state its label.
Reply: 1
(1: 1.43, 2: 3.33)

I = P.AGPPGAPGAPGAPGPVGPAGKSGDRGETGP.A: FAP cleavage fragment, 100 kDa recombinant human gelatin
II = P.AGPPGAPGAPGAPGPVGP.A: FAP cleavage fragment, 100 kDa recombinant human gelatin
III = A.GPPGAPGAPGAPGP.V: FAP cleavage fragment, 100 kDa recombinant human gelatin
Query: Please list the entries, largest Percentage first. Would you mind listing the labels in the order requested?
Reply: I, II, III
